Target: recombinant human GREM1 (hGREM1-His; C-terminal 10His tagged, R&D, #5190-GR) (human) (UniProt O60565)
Sequence (O60565 other isoform, or with tags, fused parts or gaps limits assumed, form in doubt): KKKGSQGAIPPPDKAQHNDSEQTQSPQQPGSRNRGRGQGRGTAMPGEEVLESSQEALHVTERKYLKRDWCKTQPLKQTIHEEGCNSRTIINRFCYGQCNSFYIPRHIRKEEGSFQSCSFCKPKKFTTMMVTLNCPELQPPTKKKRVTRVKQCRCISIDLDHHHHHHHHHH
Experiment: BLI Octet, captured mAb, 100 nM GREM1 without vs with 5 uM heparin
value type: Reduction in Signal from Heparin at 30 sec (nm)
Could you give me the number in nm? Just the number is fine.

H4H6270P (antibody, human IgG4, V domains shown) VH: QVQLVESGGDVVQPGRSLRLSCAASGFTFSSYGMHWVRQAPGKGLEWVAIIWNDGSNKYYTDSVKGRFTISRDNSKNTLYLQMNGLRAEDTAIYYCARDQDQFDYWGQGTLVTVSS VL: EIVMTQSPATLSVSPGERATLSCRASQSISTNLAWYRQKPGQAPRLLIYDASTRATGIPARFSGSGSGTDFTLTISSLQSEDFAVYYCQQYSNWPPYTFGQGTKLEIK    0.15
H4H6243P (antibody, human IgG4, V domains shown) VH: QVQLVQSGAEVKKPGASVKVSCKVSGYTLTELSMHWVRQAPGKGLEWMGGFDPEDGETIYAQKFQDRVTMTEDTSTDTAYMELSSLRSEDTAVYYCVTDDYEILPEYPYNMDVWGQGTTVTVSS VL: DIQMTQSPSSLSASVGDRVTITCRASQSISTYLNWYQQKPGKAPKLLIYAASSLQSGVPSRFSGSGSGTDFTLTIRSLQPEDFATYYCQQSHITPFTFGPGTKVDIK    0.3

Now consider a different binder.
Prompt line: Quick one: Reduction in Signal from Heparin at 30 sec of H4H2780N (antibody, human IgG4, V domains shown) VH: EVQLVESGGGLVKPGGSLRLSCAASGFTFSTYSMNWVRQAPGKGLEWVSSISSGSSYIYYTDSVKGRFTISRDNAKNSLYLQMNSLRAEDTAVYYCARFGSYYYFGFDVWGQGTTVTVSS VL: DIQMTQSPSSLSASVGDRVTITCRASQGISNYLAWYQQKPGKVPKLLIFSASTLQSGVPSRFSGSGSGPDFTLTVSSLQPEDVATYYCQKYNSAPFAFGPGTKVDIK ?
Response line: 0
